Reference source for all entries: paper PMC6270398

readout.type: melting point (°C)
# output: bare number, implied unit °C

(Q) Fill in melting point for record Cc1nc(C(Cl)(Cl)S(=O)(=O)c2ccccc2)c([N+](=O)[O-])s1 [3a]
(A) 169

(Q) Fill in reported melting point for this entry: Cc1nc(C(Cl)(Cl)S(=O)(=O)c2ccc(F)cc2)c([N+](=O)[O-])s1 [3e]
(A) 145

(Q) For Cc1nc(CS(=O)(=O)c2cccc(C(F)(F)F)c2)c([N+](=O)[O-])s1 [2g] , write its melting point.
(A) 121

(Q) Answer with the recorded melting point of Cc1nc(CS(=O)(=O)c2ccc(Cl)cc2)c([N+](=O)[O-])s1 [2c] only.
(A) 180

(Q) Return melting point (reported value) for this compound: Cc1nc(CS(C)(=O)=O)c([N+](=O)[O-])s1 [2j]
(A) 127

(Q) For Cc1nc(CS(=O)(=O)c2cccc(F)c2)c([N+](=O)[O-])s1 [2f] , write its melting point.
(A) 154

(Q) Return reported melting point. Input compound: Cc1nc(CS(=O)(=O)c2ccc3ccccc3c2)c([N+](=O)[O-])s1 [2l]
(A) 163

(Q) Return melting point (reported value) for this compound: Cc1nc(C(Cl)(Cl)S(=O)(=O)c2ccc(Br)cc2)c([N+](=O)[O-])s1 [3d]
(A) 165

(Q) Output measured melting point for this item: Cc1ccc(S(=O)(=O)Cc2nc(C)sc2[N+](=O)[O-])cc1 [2b]
(A) 179
